# assayedTarget: recombinant human PCSK9, V5-, His-tagged (human, UniProt Q8NBP7 31-692, limits assumed)
# Sequence (Q8NBP7 31-692 limits assumed): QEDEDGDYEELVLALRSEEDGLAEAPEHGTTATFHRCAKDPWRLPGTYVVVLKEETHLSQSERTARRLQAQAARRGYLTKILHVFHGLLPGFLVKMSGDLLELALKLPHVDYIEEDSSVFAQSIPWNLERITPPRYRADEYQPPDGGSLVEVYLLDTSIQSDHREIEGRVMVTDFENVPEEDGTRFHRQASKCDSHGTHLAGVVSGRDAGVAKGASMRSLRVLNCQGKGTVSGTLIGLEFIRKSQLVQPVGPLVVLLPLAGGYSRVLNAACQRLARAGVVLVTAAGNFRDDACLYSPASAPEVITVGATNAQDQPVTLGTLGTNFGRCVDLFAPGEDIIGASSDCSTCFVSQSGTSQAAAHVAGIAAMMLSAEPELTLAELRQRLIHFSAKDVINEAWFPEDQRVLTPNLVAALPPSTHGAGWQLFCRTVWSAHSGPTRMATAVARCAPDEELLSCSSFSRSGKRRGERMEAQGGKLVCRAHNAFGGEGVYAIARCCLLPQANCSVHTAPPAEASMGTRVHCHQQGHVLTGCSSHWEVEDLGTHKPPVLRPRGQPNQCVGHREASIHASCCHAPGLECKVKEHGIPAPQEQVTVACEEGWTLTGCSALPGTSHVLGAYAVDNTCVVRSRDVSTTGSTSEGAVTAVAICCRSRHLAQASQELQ
# methodSummary: cell-based or functional assay
measuredQuantity: inhibition of PCSK9-dependent inhibition of cellular LDL uptake (Exopolar assay) (%)
Unit % implied. Number only.

{"columns": ["binder", "observedValue"],
 "data": [
  ["3CX2A06 (Fab, V domains shown, No SPR values are printed for this Fab; also called 3CX2A06 Fab) VH: QVQLVQSGAEVKKPGESLKISCKGSGYSFSNFWIAWVRQMPGKGLEWMGIIDPSDSWTRYSPSFQGQVTISADKSISTAYLQWSSLKASDTAMYYCARGDGQDFDNWGQGTLVTVSS VL: DIQMTQSPSSLSASVGDRVTITCRASQNINSYLNWYQQKPGKAPKLLIYAASSLQSGVPSRFSGSGSGTDFTLTISSLQPEDFAVYYCLQNYDLPNTFGQGTKVEIKR", 23],
  ["3BX5C01 (Fab, V domains shown, also called 3BX5C01 Fab) VH: QVQLVQSGAEVKKPGESLKISCKGSGYSFTSYGISWVRQMPGKGLEWMGMIDPSDSFTTYSPSFQGQVTISADKSISTAYLQWSSLKASDTAMYYCARGYYFTYALQPMDHWGQGTLVTVSS VL: DIELTQPPSVSVAPGQTARISCSGDNLRDYIVHWYQQKPGQAPVLVIYDDSNRPSGIPERFSGSNSGNTATLTISGTQAEDEADYYCGFDNGGDIDVFGGGTKLTVLG", 25],
  ["3CX4B08 (Fab, V domains shown, also called 3CX4B08 Fab) VH: QVQLVESGGGLVQPGGSLRLSCAASGFTFSNYTMNWVRQAPGKGLEWVSFISSSSSETYYADSVKGRFTISRDNSKNTLYLQMNSLRAEDTAVYYCARGYGDMVDLWGQGTLVTVSS VL: DIELTQPPSVSVAPGQTARISCSGDSIPTYYVAWYQQKPGQAPVLVIYSDTDRPSGIPERFSGSNSGNTATLTISGTQAEDEADYYCQSFDNHGYHVFGGGTKLTVLG", 61]
]}

Here's the next entry for you.
Form field inhibition of PCSK9-dependent inhibition of cellular LDL uptake (Exopolar assay), entry 1CX1G08 (Fab, V domains shown, also called 1CX1G08 Fab) VH: QVQLVESGGGLVQPGGSLRLSCAASGFTFSDYWVSWVRQAPGKGLEWVSFISYDGSSTYYADSVKGRFTISRDNSKNTLYLQMNSLRAEDTAVYYCARTYFEGVDVWGQGTLVTVSS VL: DIELTQPPSVSVAPGQTARISCSGDNIGTYYVHWYQQKPGQAPVLVIYDDSNRPSGIPERFSGSNSGNTATLTISGTQAEDEADYYCGTWDNTSFNLVFGGGTKLTVLG : 53

All values here come from patent US20120082679A1.
